Test system: P388 leukemia ip, CD2F1 mice, survival T/C
Test: NCI In Vivo Anticancer Drug Screen. Data for tumor model P388 Leukemia (intraperitoneal) in CD2F1 (CDF1) mice
Details: endpoint: median survival time; dose: 50.0 mg/kg/injection; schedule: Q01DX005 (ip); vehicle: saline with Tween-80; higher = longer survival
Inconclusive results and toxic doses are left out.
Catalogue of compounds with associated T/C

Measured T/C (P388 leukemia ip, CD2F1 mice, survival T/C), entry CCC1OCC(C(Cl)CCl)O1 (stereo unspecified) : 102 % of control

----------
Catalogue of compounds with associated T/C
System: P388 leukemia ip, CD2F1 mice, survival T/C
Assay: NCI In Vivo Anticancer Drug Screen. Data for tumor model P388 Leukemia (intraperitoneal) in CD2F1 (CDF1) mice
Details: endpoint: median survival time; dose: 25.0 mg/kg/injection; schedule: Q01DX009 (ip); vehicle: other; higher = longer survival
Inconclusive results and toxic doses are left out.

See these solved cases before continuing.
CCCCCCCCCCCCCCCC(=O)N(CC#CCN(C(=O)CCCCCCCCCCCCCCC)C(C)CCCN(CC)CC)C(C)CCCN(CC)CC (stereo unspecified); 97 % of control
CCOC(=O)/C=C/C(=O)NNS(=O)(=O)CCC(NC(=O)OCc1ccccc1)C(=O)OCc1ccccc1 (stereo unspecified); 101 % of control

Data point: CCOC(=O)N1CCc2cc(OC)c(OC)cc2/C1=C/c1cc(OC)c(OC)cc1Br ; T/C = 96 % of control

----------
System: P388 leukemia ip, CD2F1 mice, survival T/C
Test: NCI In Vivo Anticancer Drug Screen. Data for tumor model P388 Leukemia (intraperitoneal) in CD2F1 (CDF1) mice
Conditions: endpoint: median survival time; dose: 100.0 mg/kg/injection; schedule: Q01DX009 (ip); vehicle: saline with Tween-80; higher = longer survival
Toxic doses and inconclusive results are not listed.
measuredAttribute: T/C

See these solved cases before continuing.
Clc1ccc(C2N(Cc3ccccc3)CCC3CCCCN32)cc1Cl (stereo not drawn); 91 % of control
N#C/C(=C1C=C(Br)/C(=N\O)C=C\1Cl)c1cccc2ccccc12; 102 % of control
CN1NC(C)(c2cccnc2)SC1=S (stereo not drawn); 100 % of control
CC(=O)OCC1OC(n2cc(C)c(=O)[nH]c2=O)CC1OC(C)=O (stereo not drawn); 110 % of control
O=c1[nH]ccc2sccc12; 100 % of control

Data point: CC1=NNB(O)c2ccsc21 ; T/C = 99 % of control

Data point: Cc1ccc(NC(=O)Oc2ccc(C(C)(C)C)cc2Br)c([N+](=O)[O-])c1 ; T/C = 97 % of control

----------
System: P388 leukemia ip, CD2F1 mice, survival T/C
Test: NCI In Vivo Anticancer Drug Screen. Data for tumor model P388 Leukemia (intraperitoneal) in CD2F1 (CDF1) mice
Conditions: endpoint: median survival time; dose: 50.0 mg/kg/injection; schedule: Q01DX009 (ip); vehicle: other; higher = longer survival
Inconclusive results and toxic doses are left out.
measuredAttribute: T/C

CC(=O)Oc1ccc(N=Cc2cc3c(cc2[N+](=O)[O-])OCO3)cc1; 109 % of control
CCOC(=O)N1CCc2cc(OC)c(OC)cc2/C1=C/c1cc(OC)c(OC)cc1Br; 96 % of control
CC1=NC(c2ccccn2)=NNC(c2ccccn2)=C1c1ccccc1; 116 % of control
CCOC(=O)C(NC(C)=O)(C(=O)OCC)c1ccc([N+](=O)[O-])cn1; 90 % of control
CCOC(=O)/C=C/C(=O)NNS(=O)(=O)CCC(NC(=O)OCc1ccccc1)C(=O)OCc1ccccc1 (centres undefined); 104 % of control
N#Cc1nccnc1Cl; 100 % of control
CCCCCCCCCCCCCCCC(=O)N(CC#CCN(C(=O)CCCCCCCCCCCCCCC)C(C)CCCN(CC)CC)C(C)CCCN(CC)CC (centres undefined); 101 % of control
CC1(C)CC(C)(OC(=O)c2ccccc2Cl)[N+]([O-])=N1 (centres undefined) (tested in a mixture with another compound); 93 % of control

Data point: CCOC(=O)C1CC(=O)c2ccc(OC)c(OC)c2C1 (centres undefined) ; T/C = 100 % of control
